meta.source: ChEMBL document CHEMBL1201862

What GI50 was measured for each of the following?

Lookup: Give recorded GI50 with HCT-15 for the following compound: `COc1ccc2nc3cc(Cl)ccc3c(Sc3ccc([N+](=O)[O-])cc3C)c2c1`
Found: > 100 µM

Lookup: Item `O=c1c(-c2ccccc2F)coc2cc(F)ccc12` with HCT-15 - GI50?
Found: > 100 µM

Lookup: What value of GI50 on HCT-15 does `Cc1ccc2c(c1)/C(=N/Nc1ccccc1[N+](=O)[O-])C(=O)N2` have?
Found: > 100 µM

Lookup: Notebook entry, HCT-15 assay: GI50 of `CN(C)CCn1c(=O)c2ccc3c4c(nn3CCN(C)C)c3cc(O)ccc3n(c1=O)c24` = ?
Found: 0.147 µM

Lookup: Item: `O=c1c(O)c(-c2ccc(O)cc2O)oc2cc(O)cc(O)c12` Test system: HCT-15 Read-out: GI50 Value: ?
Found: > 100 µM

Lookup: Provide value of GI50 for this record tested with HCT-15: CC12CC(c3ccccc3O1)C(C(=O)Nc1nccs1)C(=O)N2 (stereo not given)
Found: > 100 µM

Lookup: API: value(readout= GI50, system= HCT-15, query= CC(C(=O)C(C)O[Si](c1ccccc1)(c1ccccc1)C(C)(C)C)=P(c1ccccc1)(c1ccccc1)c1ccccc1 (stereo not given) )
Found: 5.64 µM

Lookup: Given the entry `Cc1ccc(C(=O)N/N=C(\N=N\c2cccc([N+](=O)[O-])c2)c2ccc(N(CCC#N)CCC#N)cc2C)cc1` , what GI50 was observed with HCT-15?
Found: 30.8 µM

Lookup: Query GI50 on HCT-15 for `O=S(=O)(c1ccc(Br)cc1)n1c2ccc(Br)cc2c2nc3ccccc3nc21`
Found: > 100 µM

Lookup: # get_value(readout= GI50, system= HCT-15) for `NC(=O)OCC1=C(COC(N)=O)C(=O)c2c(O)ccc(O)c2C1=O`
Found: > 100 µM

Lookup: Lab note: need GI50 for COc1ccc2c(c1)C(=O)C1(C2)[C@H](c2ccccc2)C2C(=O)c3cc(OC)ccc3C2[C@H]1c1ccccc1 (stereo not given in full) on HCT-15, anyone have it?
Found: > 100 µM

Lookup: Value wanted: GI50 (HCT-15) of entry Cc1cccc2c1Sc1ccccc1C2NC(=O)CN(C)C (stereo not given)
Found: > 100 µM

Lookup: Short answer please: GI50, HCT-15, entry `NCCc1nc(-c2nc(C(=O)O)cs2)cs1`
Found: > 100 µM

Lookup: Which GI50 is reported with HCT-15 for this entry: COc1ccc(NC2Oc3cc4c(cc3C(c3cccc(OC)c3OC)C2C)OCO4)cc1 (stereo not given) ?
Found: 2.96 µM

Lookup: Query the reported GI50 for HCT-15; item: CC(=O)O[C@H]1CC[C@@]2(C)C(=CC[C@@H]3C2CC[C@]2(C)C(=O)NC(=O)CC32)C1 (stereo not given in full)
Found: 68.4 µM

Lookup: Write down the reported GI50 of CC(C)CC(NC(=O)C(O)C(N)Cc1ccccc1)C(=O)O (stereo not given) , test system: HCT-15.
Found: > 100 µM

Lookup: Form field - read-out: GI50; system: HCT-15; submitted item: `O=C(Nc1ccc(Cl)c(C(F)(F)F)c1)C(=O)c1c(O)c2ccccc2oc1=O`
Found: > 100 µM

Lookup: Lab request: please report GI50 under test system HCT-15 for `O=C(NCCCCCCCCNC(=O)c1cnc2ccccc2n1)c1cnc2ccccc2n1`
Found: > 100 µM

Lookup: Entry `CN(C)CCNC(=O)Cn1cc([N+](=O)[O-])c(=O)c2ccccc21` , system HCT-15: what GI50 was measured?
Found: > 100 µM

Lookup: For HCT-15, provide GI50 of COC(=O)C1=CC2CC1C(S(=O)(=O)c1ccccc1)C2S(=O)(=O)c1ccccc1 (stereo not given) please.
Found: 12.5 µM
